system: 883617-216-R-J1-PDC complex spheroid viability; test: Anticancer human tumor 883617-216-R-J1-PDC patient-derived bladder carcinoma cell line growth inhibition [POLQ]; conditions: second compound 1 µM; first compound 0.316 µM; hits give low values;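 note: spheroids exposed to compounds for seven days before readout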
Under this convention, True denotes viability, T/C strictly below 80% and False denotes viability, T/C at or above 80%.

{"columns": ["compound", "target.of.assay", "qualitative.label"],
 "data": [
  ["C=CC(=O)N1CCN(c2nc(=O)n(-c3c(C)ccnc3C(C)C)c3nc(-c4c(O)cccc4F)c(F)cc23)C(C)C1 (stereo unspecified) + COC1C(OC(N)=O)C(O)C(Oc2ccc3c(O)c(NC(=O)c4ccc(O)c(CC=C(C)C)c4)c(=O)oc3c2C)OC1(C)C", "883617-216-R-J1-PDC complex spheroid viability", "True"],
  ["CC1COCCN1c1cc(-c2ccnn2C)c2ccnc(-c3ccn[nH]3)c2n1 (stereo unspecified) + Cc1cccc(N(C)C(=O)C2C(O)CCN2c2nc(C)cc(C(F)(F)F)c2C#N)c1", "883617-216-R-J1-PDC complex spheroid viability", "True"],
  ["CC(C)n1c(=O)n(C)c2cnc3cc(F)c(-c4ccc(OCCCN5CCCCC5)nc4)cc3c21 + Cc1cccc(N(C)C(=O)C2C(O)CCN2c2nc(C)cc(C(F)(F)F)c2C#N)c1", "883617-216-R-J1-PDC complex spheroid viability", "False"],
  ["C#Cc1c(F)ccc2cc(O)cc(-c3ncc4c(N5CC6CCC(C5)N6)nc(OCC56CCCN5CC(F)C6)nc4c3F)c12 (stereo unspecified) + Nc1ccc(C#CCN(C(=O)Cc2ncc(C(F)(F)F)cc2C(F)(F)F)c2ccc(F)cc2)nn1", "883617-216-R-J1-PDC complex spheroid viability", "False"],
  ["O=C(c1cc(Cc2n[nH]c(=O)c3ccccc23)ccc1F)N1CCN(C(=O)C2CC2)CC1 + Nc1ccc(C#CCN(C(=O)Cc2ncc(C(F)(F)F)cc2C(F)(F)F)c2ccc(F)cc2)nn1", "883617-216-R-J1-PDC complex spheroid viability", "False"],
  ["CC1COCCN1c1cc(C2(S(C)(=N)=O)CC2)nc(-c2ccnc3[nH]ccc23)n1 (stereo unspecified) + Cc1cccc(N(C)C(=O)C2C(O)CCN2c2nc(C)cc(C(F)(F)F)c2C#N)c1", "883617-216-R-J1-PDC complex spheroid viability", "False"],
  ["CC(C)n1c(=O)n(C)c2cnc3cc(F)c(-c4ccc(OCCCN5CCCCC5)nc4)cc3c21 + Nc1ccc(C#CCN(C(=O)Cc2ncc(C(F)(F)F)cc2C(F)(F)F)c2ccc(F)cc2)nn1", "883617-216-R-J1-PDC complex spheroid viability", "False"],
  ["COc1cccc(OCCCN)c1-c1cc(Nc2cnc(C#N)cn2)n[nH]1 + COC1C(OC(N)=O)C(O)C(Oc2ccc3c(O)c(NC(=O)c4ccc(O)c(CC=C(C)C)c4)c(=O)oc3c2C)OC1(C)C", "883617-216-R-J1-PDC complex spheroid viability", "True"],
  ["CCc1cc2c(N3CCc4c(cc(Cn5ccnc5)cc4-c4cn(C)nc4C(F)(F)F)C3=O)cc(C)nc2c(OC)n1 + Cc1cccc(N(C)C(=O)C2C(O)CCN2c2nc(C)cc(C(F)(F)F)c2C#N)c1", "883617-216-R-J1-PDC complex spheroid viability", "False"],
  ["COc1cc(C2c3cc4c(cc3C(OC3OC5COC(C)OC5C(O)C3O)C3COC(=O)C23)OCO4)cc(OC)c1O (stereo unspecified) + COC1C(OC(N)=O)C(O)C(Oc2ccc3c(O)c(NC(=O)c4ccc(O)c(CC=C(C)C)c4)c(=O)oc3c2C)OC1(C)C", "883617-216-R-J1-PDC complex spheroid viability", "True"],
  ["O=c1[nH]cc(F)c(=O)[nH]1 + COC1C(OC(N)=O)C(O)C(Oc2ccc3c(O)c(NC(=O)c4ccc(O)c(CC=C(C)C)c4)c(=O)oc3c2C)OC1(C)C", "883617-216-R-J1-PDC complex spheroid viability", "False"],
  ["O=C(c1cc(Cc2n[nH]c(=O)c3ccccc23)ccc1F)N1CCN(C(=O)C2CC2)CC1 + Cc1cccc(N(C)C(=O)C2C(O)CCN2c2nc(C)cc(C(F)(F)F)c2C#N)c1", "883617-216-R-J1-PDC complex spheroid viability", "False"],
  ["CCc1c2c(nc3ccc(O)cc13)-c1cc3c(c(=O)n1C2)COC(=O)[C@]3(O)CC + COC1C(OC(N)=O)C(O)C(Oc2ccc3c(O)c(NC(=O)c4ccc(O)c(CC=C(C)C)c4)c(=O)oc3c2C)OC1(C)C", "883617-216-R-J1-PDC complex spheroid viability", "True"],
  ["CC1COCCN1c1cc(-c2ccnn2C)c2ccnc(-c3ccn[nH]3)c2n1 (stereo unspecified) + COC1C(OC(N)=O)C(O)C(Oc2ccc3c(O)c(NC(=O)c4ccc(O)c(CC=C(C)C)c4)c(=O)oc3c2C)OC1(C)C", "883617-216-R-J1-PDC complex spheroid viability", "True"],
  ["O=C(Nc1ccc(O)c(NS(=O)(=O)c2ccc(F)cc2)c1)c1ccc(-c2ccccc2)cc1 + Nc1ccc(C#CCN(C(=O)Cc2ncc(C(F)(F)F)cc2C(F)(F)F)c2ccc(F)cc2)nn1", "883617-216-R-J1-PDC complex spheroid viability", "False"],
  ["CC1COCCN1c1cc(C2(O)CC3CCC(C2)O3)c2cnn(-c3ccn[nH]3)c2n1 (stereo unspecified) + Cc1cccc(N(C)C(=O)C2C(O)CCN2c2nc(C)cc(C(F)(F)F)c2C#N)c1", "883617-216-R-J1-PDC complex spheroid viability", "True"],
  ["C=CCn1c(=O)c2cnc(Nc3ccc(N4CCN(C)CC4)cc3)nc2n1-c1cccc(C(C)(C)O)n1 + Nc1ccc(C#CCN(C(=O)Cc2ncc(C(F)(F)F)cc2C(F)(F)F)c2ccc(F)cc2)nn1", "883617-216-R-J1-PDC complex spheroid viability", "False"],
  ["O=c1[nH]cc(F)c(=O)[nH]1 + Cc1cccc(N(C)C(=O)C2C(O)CCN2c2nc(C)cc(C(F)(F)F)c2C#N)c1", "883617-216-R-J1-PDC complex spheroid viability", "False"],
  ["CC1COCCN1c1cc(C2(S(C)(=N)=O)CC2)nc(-c2ccnc3[nH]ccc23)n1 (stereo unspecified) + Nc1ccc(C#CCN(C(=O)Cc2ncc(C(F)(F)F)cc2C(F)(F)F)c2ccc(F)cc2)nn1", "883617-216-R-J1-PDC complex spheroid viability", "False"]
]}
